# Assayed Target: CRBN (Homo sapiens, UniProt Q96SW2)
# Construct: expressed in transfected cells; host or cells: HEK293T
# Test Description: Competition Assay: MAPPIT-like, competition with trimethoprim-lenalidomide hybrid ligand for binding to CRBN in HEK293T cells
# Type: cell-based
# Run Parameters: protocol and reagents of Example 1; read-out: IC50 Competition
Recorded Endpoint: IC50 (µM)

A = CC(C)OC1c2ccccc2C(=O)N1C1CCC(=O)NC1=O (stereo not drawn)
B = O=C1CCC(N2Cc3ccc(NCC(=O)NC4CC4)cc3C2=O)C(=O)N1 (stereo not drawn)
Ask | I'm curious, which of these has a smaller IC50 number: A or B ? Give the label of your selection.
Reply | B

P = Nc1cccc2c1CCN(C1CCC(=O)NC1=O)C2=O (stereo not drawn)
Q = Nc1cccc2c(=O)n(C3CCC(=O)NC3=O)nnc12 (stereo not drawn)
R = CC1CN(C)CCN1C(=O)CNc1ccc2c(c1)C(=O)N(C1CCC(=O)NC1=O)C2 (stereo not drawn)
S = O=C1CCC(N2Cc3ccc(NCC(=O)N4Cc5ccccc5C4)cc3C2=O)C(=O)N1 (stereo not drawn)
Ask | Number of molecules to sort: 4. Sort criterion: IC50, ascending. The labels, placed in the requested order, form the answer.
Reply | S, R, Q, P

1 = CC1CC(NC(=O)CNc2ccc3c(c2)C(=O)N(C2CCC(=O)NC2=O)C3)CCO1 (stereo not drawn)
2 = CC1CN(C(=O)CNc2ccc3c(c2)C(=O)N(C2CCC(=O)NC2=O)C3)CC(=O)N1 (stereo not drawn)
Ask | I'm curious, which of these has a smaller IC50 number: 1 or 2 ? Give the label of your selection.
Reply | 2

----------
# Assayed Target: CRBN (Homo sapiens)
# Construct: expressed in transfected cells; host or cells: HEK293T
# Test Description: Competition Assay: MAPPIT-like, competition with trimethoprim-lenalidomide hybrid ligand for binding to CRBN in HEK293T cells
# Format: cell-based
# Run Parameters: HEK293T cells, 300 nM trimethoprim-lenalidomide hybrid ligand, luciferase 24 hours after compound treatment; read-out: Competition IC50
Recorded Endpoint: IC50 (nM)

| Compound | Assayed Target | IC50 / nM |
| --- | --- | --- |
| CC(C)(C)OC(=O)NCCOCCOCCOCCn1cc(CNc2nc(Nc3ccc4c(c3)CN(C3CCC(=O)NC3=O)C4=O)c3ccsc3n2)nn1 (stereo not drawn) | CRBN (Homo sapiens) | 376 |
| Cc1sc2c(c1C)C(c1ccc(Cl)cc1)=N[C@@H](CC(=O)NCCOCCOCCNC(=O)COc1cccc3c1CN(C1CCC(=O)NC1=O)C3=O)c1nnc(C)n1-2 (stereo partly drawn) | CRBN (Homo sapiens) | 68 |
| C#CCOCCOCCOCCNC(=O)c1ccc(CNC(=O)CNc2ccc3c(c2)C(=O)N(C2CCC(=O)NC2=O)C3)cc1 (stereo not drawn) | CRBN (Homo sapiens) | 5250 |
| C#CCOCCOCCOCCOCC(=O)Nc1cc(Br)c2c(c1OC)C(=O)N(C1CCC(=O)NC1=O)C2 (stereo not drawn) | CRBN (Homo sapiens) | 189 |

A = CC/C(=C(\c1ccccc1)c1ccc(OCCN(C)CC(=O)NCCOCCOCCOCCOCCNC(=O)COc2cccc3c2CN(C2CCC(=O)NC2=O)C3=O)cc1)c1ccccc1 (stereo not drawn)
B = Cc1sc2c(c1C)C(c1ccc(Cl)cc1)=N[C@@H](CC(=O)NCCNC(=O)COc1cccc3c1CN(C1CCC(=O)NC1=O)C3=O)c1nnc(C)n1-2 (stereo partly drawn)
Ask | Field: entry with larger IC50 (options A / B ). Give the label of your selection.
Reply | A

These entries and their values trace back to patent US20230099031A1.
